Attribution: ChEMBL document CHEMBL3045569

tested on: Cydia pomonella; experiment: Ovicidal activity against <24 hr-old Cydia pomonella (codling moth) eggs assessed as corrected mortality at 0.5 mg/ml applied as 0.1 ul drop solution topically measured for 3 days; format: functional; settings: topical, 72 h

- compound: "C=CCOC(=O)CCCCCCCCCCCCCCCCC [ALLYL OCTADECANOATE]"
  mortality at 500 µg/mL, %: 11.9
- compound: "C=CCOC(=O)CCCCCCCCCCCCC [ALLYL TETRADECANOATE]"
  mortality at 500 µg/mL, %: 7.5
- compound: "C=CCOC(=O)CCC [ALLYL BUTANOATE]"
  mortality at 500 µg/mL, %: 20.5
- compound: "C=CCOC(=O)CCCCCCCCC [ALLYL DECANOATE]"
  mortality at 500 µg/mL, %: 12.4
- compound: "C=CCOC(=O)CCCCC [ALLYL HEXANOATE]"
  mortality at 500 µg/mL, %: 22.4
- compound: "C=CCOC(=O)CCCCCCCCCCC [ALLYL DODECANOATE]"
  mortality at 500 µg/mL, %: 10
- compound: "C=CCOC(=O)CCCCCCCCCCCCCCC"
  mortality at 500 µg/mL, %: 0
- compound: "C=CCOC(=O)CCCCCCC [ALLYL OCTANOATE]"
  mortality at 500 µg/mL, %: 29.9
- compound: "CCOC(=O)NCCOc1ccc(Oc2ccccc2)cc1"
  mortality at 500 µg/mL, %: 100

----------
system: Cydia pomonella; assay: Ovicidal activity against <24 hr-old Cydia pomonella (codling moth) eggs assessed as mortality at the stage of black head development at 10 mg/ml applied as 0.1 ul drop solution topically measured for 3 days (acetone Rvb = 94.4 +/-0.1%); format: functional; conditions: topical, 72 h
Catalogue of mortality at 10000 µg/mL readings, one per entry.

- compound: "C=CCOC(=O)CCCCC [ALLYL HEXANOATE]"
  mortality at 10000 µg/mL / %: 18.9
- compound: "C=CCOC(=O)CCCCCCCCCCC [ALLYL DODECANOATE]"
  mortality at 10000 µg/mL / %: 18.9
- compound: "C=CCOC(=O)CCCCCCCCCCCCCCCCC [ALLYL OCTADECANOATE]"
  mortality at 10000 µg/mL / %: 43.3
- compound: "C=CCOC(=O)CCCCCCCCCCCCC [ALLYL TETRADECANOATE]"
  mortality at 10000 µg/mL / %: 27.8
- compound: "C=CCOC(=O)CCCCCCC [ALLYL OCTANOATE]"
  mortality at 10000 µg/mL / %: 6.7
- compound: "C=CCOC(=O)CCCCCCCCC [ALLYL DECANOATE]"
  mortality at 10000 µg/mL / %: 14.4
- compound: "C=CCOC(=O)CCCCCCCCCCCCCCC"
  mortality at 10000 µg/mL / %: 46.7
- compound: "C=CCOC(=O)CCC [ALLYL BUTANOATE]"
  mortality at 10000 µg/mL / %: 10
